# ASSAY_TARGET: GST-SBP-SLBP (stem-loop binding protein) (Homo sapiens, UniProt Q14493 1-270)
# PROTOCOL_DESCRIPTION: targeted RNA Bind-n-Seq; RBNS binding buffer: 25 mM Tris pH 7.5, 150 mM KCl, 3 mM MgCl2, 0.1% Tween, 0.5 mg/mL BSA, 1 mM DTT; 27 nM protein, 750 pM RNA pool; temperature not stated; high values mean tight binding
# PARTICULARS: protein: recombinant; tags: N-terminal GST and SBP (pGEX6P1-SBP)
In this section we review reported binding signal values for a set of binders.

[
  {
    "BINDER": "consensus (structured_RNA) RNA: GGUCACGUCUCAAUCAACUCCCAAAGGUUCUUCUCAGAGCCACCCAUCAACAGCUCGCAGUCAAG",
    "RESULT_UNITS": "log2 fold change",
    "binding signal": 2.76
  },
  {
    "BINDER": "consensus (structured_RNA) RNA: GGUCACGUCUCAAUCAACUCCCAAAGGUUUUUCUAAAAGCCACCCAUCAACAGCUCGCAGUCAAG",
    "RESULT_UNITS": "log2 fold change",
    "binding signal": 2.61
  },
  {
    "BINDER": "consensus (structured_RNA) RNA: GGUCACGUCUCAAUCAACUCCCAAAGGUCCUUCUAAGGGCCACCCAUCAACAGCUCGCAGUCAAG",
    "RESULT_UNITS": "log2 fold change",
    "binding signal": 3.27
  },
  {
    "BINDER": "consensus (structured_RNA) RNA: GGUCACGUCUCAAUCAACUCCCAAAGGCUCUUCUAAGAGCCACCCAUCAACAGCUCGCAGUCAAG",
    "RESULT_UNITS": "log2 fold change",
    "binding signal": 3.2
  },
  {
    "BINDER": "consensus (structured_RNA) RNA: GGUCACGUCUCAAUCAACUCCCAAAGGUCUUUUUCAGGGCCACCCAUCAACAGCUCGCAGUCAAG",
    "RESULT_UNITS": "log2 fold change",
    "binding signal": 1.25
  },
  {
    "BINDER": "consensus (structured_RNA) RNA: GGUCACGUCUCAAUCAACUCCCAAAGGUCUUUCUAAAGACCACCCAUCAACAGCUCGCAGUCAAG",
    "RESULT_UNITS": "log2 fold change",
    "binding signal": 3.73
  },
  {
    "BINDER": "consensus (structured_RNA) RNA: GGUCACGUCUCAAUCAACUCCCAAAGGUUUUUUUAAGAACCACCCAUCAACAGCUCGCAGUCAAG",
    "RESULT_UNITS": "log2 fold change",
    "binding signal": 0.759
  },
  {
    "BINDER": "consensus (structured_RNA) RNA: GGUCACGUCUCAAUCAACUCCCAAAGGUCCUUCUGAGGGCCACCCAUCAACAGCUCGCAGUCAAG",
    "RESULT_UNITS": "log2 fold change",
    "binding signal": 2.11
  },
  {
    "BINDER": "consensus (structured_RNA) RNA: GGUCACGUCUCAAUCAACUCCCAAAGGUCCUUUUCAGGGCCACCCAUCAACAGCUCGCAGUCAAG",
    "RESULT_UNITS": "log2 fold change",
    "binding signal": 3.33
  },
  {
    "BINDER": "consensus (structured_RNA) RNA: GGUCACGUCUCAAUCAACUCCCAAAGGUCUUUUUCAAGGCCACCCAUCAACAGCUCGCAGUCAAG",
    "RESULT_UNITS": "log2 fold change",
    "binding signal": 3.26
  },
  {
    "BINDER": "consensus (structured_RNA) RNA: GGUCACGUCUCAAUCAACUCCCAAAGGUUCUUCUCAGGACCACCCAUCAACAGCUCGCAGUCAAG",
    "RESULT_UNITS": "log2 fold change",
    "binding signal": 2.79
  },
  {
    "BINDER": "consensus (structured_RNA) RNA: GGUCACGUCUCAAUCAACUCCCAAAGGUCUUUCUAAGGGCCACCCAUCAACAGCUCGCAGUCAAG",
    "RESULT_UNITS": "log2 fold change",
    "binding signal": 1.09
  },
  {
    "BINDER": "consensus (structured_RNA) RNA: GGUCACGUCUCAAUCAACUCCCAAAGGUUCUUUUCAGGGCCACCCAUCAACAGCUCGCAGUCAAG",
    "RESULT_UNITS": "log2 fold change",
    "binding signal": 2.49
  },
  {
    "BINDER": "consensus (structured_RNA) RNA: GGUCACGUCUCAAUCAACUCCCAAAGGUCUUUUUCAAGACCACCCAUCAACAGCUCGCAGUCAAG",
    "RESULT_UNITS": "log2 fold change",
    "binding signal": 3.61
  }
]
